target: LRRK2 G2019S (Homo sapiens (Human), UniProt Q5S007, G2019S); assay: Inhibition of LRRK2 G2019S (Adapta kinase assay); details: Adapta method, 60 min kinase reaction
Sequence (Q5S007 whole entry G2019S): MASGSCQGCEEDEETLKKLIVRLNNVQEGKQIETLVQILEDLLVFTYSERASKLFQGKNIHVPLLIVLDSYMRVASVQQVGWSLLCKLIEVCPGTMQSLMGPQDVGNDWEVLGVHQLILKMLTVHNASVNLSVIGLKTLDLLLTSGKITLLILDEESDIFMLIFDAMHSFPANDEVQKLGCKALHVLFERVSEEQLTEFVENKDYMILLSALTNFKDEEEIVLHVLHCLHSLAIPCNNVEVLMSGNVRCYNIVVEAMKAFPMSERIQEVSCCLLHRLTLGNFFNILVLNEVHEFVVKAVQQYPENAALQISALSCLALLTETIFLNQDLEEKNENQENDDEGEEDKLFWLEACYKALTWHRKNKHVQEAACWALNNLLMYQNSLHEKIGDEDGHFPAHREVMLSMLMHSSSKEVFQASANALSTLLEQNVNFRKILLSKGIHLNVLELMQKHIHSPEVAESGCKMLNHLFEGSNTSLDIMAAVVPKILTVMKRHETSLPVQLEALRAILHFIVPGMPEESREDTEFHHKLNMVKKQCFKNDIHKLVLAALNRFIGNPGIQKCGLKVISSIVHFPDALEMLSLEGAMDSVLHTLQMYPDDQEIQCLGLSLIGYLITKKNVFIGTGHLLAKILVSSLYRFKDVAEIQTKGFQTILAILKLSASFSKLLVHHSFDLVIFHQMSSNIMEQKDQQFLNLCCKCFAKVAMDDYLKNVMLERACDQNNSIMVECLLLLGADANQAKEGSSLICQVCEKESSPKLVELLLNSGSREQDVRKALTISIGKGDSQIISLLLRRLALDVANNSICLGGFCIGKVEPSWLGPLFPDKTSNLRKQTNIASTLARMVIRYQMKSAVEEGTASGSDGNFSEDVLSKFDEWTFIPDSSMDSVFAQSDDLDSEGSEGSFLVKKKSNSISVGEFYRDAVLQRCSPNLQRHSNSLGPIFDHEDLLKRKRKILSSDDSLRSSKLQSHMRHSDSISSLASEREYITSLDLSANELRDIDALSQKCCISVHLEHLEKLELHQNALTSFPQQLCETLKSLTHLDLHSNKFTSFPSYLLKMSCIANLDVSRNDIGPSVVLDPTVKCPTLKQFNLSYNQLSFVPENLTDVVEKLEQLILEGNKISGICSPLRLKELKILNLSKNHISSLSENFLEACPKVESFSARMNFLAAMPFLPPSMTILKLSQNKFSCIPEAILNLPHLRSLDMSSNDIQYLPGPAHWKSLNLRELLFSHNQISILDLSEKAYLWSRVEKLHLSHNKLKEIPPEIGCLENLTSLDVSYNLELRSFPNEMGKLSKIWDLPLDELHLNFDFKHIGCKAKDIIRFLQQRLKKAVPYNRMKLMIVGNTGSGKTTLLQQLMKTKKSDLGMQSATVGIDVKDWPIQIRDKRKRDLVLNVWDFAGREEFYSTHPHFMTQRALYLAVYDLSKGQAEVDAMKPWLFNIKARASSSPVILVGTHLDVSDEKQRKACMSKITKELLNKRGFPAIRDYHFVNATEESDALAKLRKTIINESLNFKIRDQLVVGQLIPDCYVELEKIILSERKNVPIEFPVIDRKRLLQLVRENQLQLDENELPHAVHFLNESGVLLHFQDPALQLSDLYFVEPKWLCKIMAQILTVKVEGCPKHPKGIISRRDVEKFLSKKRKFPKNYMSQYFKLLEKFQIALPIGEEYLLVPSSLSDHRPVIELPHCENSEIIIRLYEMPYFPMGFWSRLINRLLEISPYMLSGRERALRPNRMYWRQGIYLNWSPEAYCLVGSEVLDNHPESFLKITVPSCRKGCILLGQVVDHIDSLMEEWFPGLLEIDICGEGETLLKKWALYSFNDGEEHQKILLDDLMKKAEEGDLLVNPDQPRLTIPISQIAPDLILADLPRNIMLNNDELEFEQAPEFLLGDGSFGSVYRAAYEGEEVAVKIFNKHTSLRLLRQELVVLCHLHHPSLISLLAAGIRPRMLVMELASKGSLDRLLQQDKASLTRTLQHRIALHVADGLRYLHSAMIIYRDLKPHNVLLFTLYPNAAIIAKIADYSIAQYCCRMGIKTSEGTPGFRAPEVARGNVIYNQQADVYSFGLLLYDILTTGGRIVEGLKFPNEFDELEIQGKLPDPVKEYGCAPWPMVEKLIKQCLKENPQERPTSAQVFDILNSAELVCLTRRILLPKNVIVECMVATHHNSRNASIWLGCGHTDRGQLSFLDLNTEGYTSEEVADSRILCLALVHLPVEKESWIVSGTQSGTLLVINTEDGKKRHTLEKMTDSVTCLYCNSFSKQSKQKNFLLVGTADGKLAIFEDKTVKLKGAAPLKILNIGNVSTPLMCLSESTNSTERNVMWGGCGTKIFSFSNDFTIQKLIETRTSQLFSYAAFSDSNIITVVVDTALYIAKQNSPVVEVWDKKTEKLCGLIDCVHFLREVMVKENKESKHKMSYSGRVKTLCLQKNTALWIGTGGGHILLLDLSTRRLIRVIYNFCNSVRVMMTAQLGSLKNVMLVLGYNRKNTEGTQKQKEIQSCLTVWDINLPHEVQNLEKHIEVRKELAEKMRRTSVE
MEASURED QUANTITY: IC50 (nM)

[
  {
    "MOLECULE": "CC(C)c1ccc2nc(NC(=O)c3ccc(N4CCOCC4)cc3)sc2c1 [Compound 10]",
    "MEASURED QUANTITY": "IC50",
    "UNITS TEXT": "nM",
    "RECORDED RESULT": 1170
  },
  {
    "MOLECULE": "CCOc1ccc2nc(NC(=O)c3ccc(N4CCOCC4)cc3)sc2c1 [Compound 7]",
    "MEASURED QUANTITY": "IC50",
    "UNITS TEXT": "nM",
    "RECORDED RESULT": 158
  }
]

a = O=C(Nc1nc2ccc(F)cc2s1)c1ccc(N2CCOCC2)cc1 [Compound 6]
b = O=C(Nc1nc2ccc(Br)cc2s1)c1ccc(N2CCOCC2)cc1 [Compound 8]
c = O=C(Nc1nc2ccc(C(F)(F)F)cc2s1)c1ccc(N2CCOCC2)cc1 [Compound 3]
Q: // ranking: key=IC50, reverse=True # answer = labels listed in requested order
Ans: b, a, c
(b: 1380 nM, a: 426 nM, c: 293 nM)

These entries and their values trace back to patent US11912678B2.
